This listing pairs compounds with measured cytotoxicity at 70.5 h.
assay: Human HepG2 cell viability assay in 384 well format
Assay type: toxicity, cell-based
Design: dose 125 nL, time 70.5 hour; concentration not given beside the values
protocol_conditions: HepG2 cells, read-out: Inhibition
assay_readout: cytotoxicity at 70.5 h (%)

{"compound": "COC1COC2(CCN(C(=O)c3ccccc3F)CC2)C1 (stereo not given)", "test_result": -4.84}
{"compound": "CC(Cn1ccnc1)NC(=O)NCc1ccc2c(c1)OCCO2 (stereo not given)", "test_result": 2.17}
{"compound": "COc1cc(N2CCc3ncnc(-c4ccncc4)c3CC2)ncn1", "test_result": -6.14}
{"compound": "c1ccc2oc(N3CCCC4(CCOC4)C3)nc2c1 (stereo not given)", "test_result": -5.71}
{"compound": "COCCNC(=O)C(C)S(=O)(=O)c1ccc(OC)cc1 (stereo not given)", "test_result": 6.85}
{"compound": "CCNC(=O)[C@@H]1C[C@@H](N)CN1C(=O)Cc1cc(C)ccc1C", "test_result": -8.37}
{"compound": "COCc1nc(C(=O)N2CCCC2c2noc(C)n2)cs1 (stereo not given)", "test_result": -9.63}
{"compound": "Cc1cccc(CS(=O)(=O)NCC(O)Cc2ccccc2)c1 (stereo not given)", "test_result": 0.192}
{"compound": "Cc1cc(NC(=O)CN2CCCC2c2c(C)nn(C)c2Cl)on1 (stereo not given)", "test_result": -0.864}
{"compound": "c1ncc2c(n1)CN(CC1CCCCO1)CC2 (stereo not given)", "test_result": 6.75}
{"compound": "CN(Cc1nc2ccccc2n1C)CC1CCCN1c1cccnn1 (stereo not given)", "test_result": -11.1}
{"compound": "COc1ccc2nnc(CCC(=O)Nc3nc4c(s3)CCCC4)n2n1", "test_result": -11.9}
{"compound": "COc1ccc(CN2CC[C@H]3[C@H]2CCN3C(=O)c2cnn(C)c2)cc1", "test_result": -0.0414}
{"compound": "O=C1CCC2(CCOC2)CN1Cc1nncn1CCc1ccccc1 (stereo not given)", "test_result": 4.96}
{"compound": "CNc1nc2c(s1)C(c1c(Cl)cccc1Cl)CC(=O)N2 (stereo not given)", "test_result": -15.8}
{"compound": "Cc1c(-c2cnn(C)c2)nc(N)c(C#N)c1-c1ccc(CO)o1", "test_result": 2.44}
{"compound": "Cc1ccc(CN(Cc2ccncc2)C2CC(C)(C)NC(C)(C)C2)o1", "test_result": -2.36}
{"compound": "Cc1ccccc1NS(=O)(=O)c1ccc(C(=O)O)cc1F", "test_result": -2.98}
{"compound": "CN(C)C(=O)COCc1cncc2c1CCN(Cc1cnn(C)c1)C2", "test_result": -8.65}
{"compound": "OC1(CN2CCCC2)COCCN(c2nnc(-c3ccccc3)s2)C1 (stereo not given)", "test_result": 15.8}
{"compound": "COc1cc(C2SCC(=O)Nc3[nH]ncc32)cc2c1OCO2 (stereo not given)", "test_result": -10.8}
{"compound": "CCOc1ccc(C#N)cc1NCC(=O)NC(=O)NC", "test_result": -3.9}
{"compound": "O=C(Cn1cc(I)cn1)N1CCCCCC1", "test_result": -3.07}
{"compound": "Cc1nc(N2CCOCC2)nc2c1CCN(C(=O)NC1CCCC1)CC2", "test_result": 20.6}
{"compound": "CC(SCCNS(=O)(=O)c1cnn(C)c1)c1cccs1 (stereo not given)", "test_result": -4.4}
